The reported measurements were obtained from the supplement of paper PMC10567573.

B1: ZMYND11 (parent)
chain: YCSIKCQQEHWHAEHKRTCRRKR

variants of: B1; assay: protein stability index of a GFP-peptide fusion (GPS, HEK-293T) (PSI 1-6); higher = more stable; settings: c terminus: native;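 also: lentivirally expressed fusions sorted by FACS into six bins by GFP to DsRed ratio, PSI derived from sequencing read proportions per bin multiplied by bin number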

# Mutation key, protein stability index
rows = [
    ("E9M", 1.53),
    ("R23F", 1.58),
    ("A13M", 2.86),
    ("C6N", 1.76),
    ("K22Q", 2.64),
    ("T18W", 2.16),
    ("C19L", 2.83),
    ("R23S", 2.64),
    ("R23E", 2.77),
    ("Q7C", 1.95),
    ("C2R", 3.01),
    ("H12N", 2.9),
    ("S3Y", 1.94),
    ("K22S", 3.04),
    ("A13C", 2.15),
    ("A13G", 2.62),
    ("I4A", 2.76),
    ("K5V", 1.66),
    ("H15N", 2.4),
    ("K22L", 2.02),
    ("R23T", 2.26),
    ("H15P", 2.71),
]
